- Tested on: 3D7-MR4 trophozoite parasite-infected RBCs
- test_protocol: Metabolomic profiling (hydrophilic metabolite changes, UHPLC-MS)
- Type: cell-based, Plasmodium falciparum
- condition_summary: metabolite NAD+
Parameter threshold = -0.04. Response is Y when Log2(fold change) NAD+ meets or exceeds it, else N.

>>> group_label("Cl.c1ccc2c(NCCCCCCNc3c4c(nc5ccccc35)CCCC4)c3c(nc2c1)CCCC3 [MMV019555]")
"Y"

INPUT: Identify whether the reported Log2(fold change) NAD+ of the following compound is -0.04 or greater: CC(C)(C)OC(=O)N1CCN(c2ccccc2NC(=O)c2cccc(C(F)(F)F)c2Oc2ccc(F)cc2)CC1 [MMV030666]
OUTPUT: N

INPUT: Identify whether the reported Log2(fold change) NAD+ of the following compound is -0.04 or greater: Cc1cc(Nc2ccc(S(F)(F)(F)(F)F)cc2)n2nc(C(C)(F)F)nc2n1 [DSM265, reference compound]
OUTPUT: Y

INPUT: Identify whether the reported Log2(fold change) NAD+ of the following compound is -0.04 or greater: CC(C)(C)NCc1cc(Nc2ccnc3cc(Cl)ccc23)c2c(c1O)CCCC2 [Naphtoquine, Naphthoquine, reference compound]
OUTPUT: Y

INPUT: Identify whether the reported Log2(fold change) NAD+ of the following compound is -0.04 or greater: C[C@H]1Cc2c([nH]c3cc(Cl)c(F)cc23)[C@@]2(N1)C(=O)Nc1ccc(Cl)cc12 [KAE609, reference compound]
OUTPUT: N

INPUT: Identify whether the reported Log2(fold change) NAD+ of the following compound is -0.04 or greater: COCCNCC(O)Cn1c2ccc(Cl)cc2c2cc(Cl)ccc21 (centres unmarked) [MMV019017]
OUTPUT: N

INPUT: Identify whether the reported Log2(fold change) NAD+ of the following compound is -0.04 or greater: O=C(Nc1ccsc1C(=O)NC1CCCCC1)c1ccc(F)cc1 [MMV665939]
OUTPUT: N

INPUT: Identify whether the reported Log2(fold change) NAD+ of the following compound is -0.04 or greater: CCN(CC)CCn1c(=N)n(CC(O)c2ccc(Cl)c(Cl)c2)c2ccccc21.Cl (centres unmarked) [MMV000248]
OUTPUT: N

###

Assignment: determine reported Log2(fold change) PE for the given compounds.
- Test system: 3D7-MR4 trophozoite parasite-infected RBCs
- test_protocol: Metabolomic profiling (hydrophilic metabolite changes, UHPLC-MS)
- Type: cell-based, Plasmodium falciparum
- condition_summary: metabolite PE
Answers are plain numbers.

Answered examples (3):
>>> numeric_readout("FC(F)(F)c1cccc(Nc2nc3ccccc3nc2Nc2cccc(C(F)(F)F)c2)c1")
-1.2530
>>> numeric_readout("Cl.c1ccc2c(NCCCCCCNc3c4c(nc5ccccc35)CCCC4)c3c(nc2c1)CCCC3")
-2.1499
>>> numeric_readout("Cc1cc(Nc2ccc(S(F)(F)(F)(F)F)cc2)n2nc(C(C)(F)F)nc2n1 [DSM265, reference compound]")
-0.3900

Hi team, please reply with Log2(fold change) PE for each item in this list.
1. CC(C)(C)OC(=O)N1CCN(c2ccccc2NC(=O)c2cccc(C(F)(F)F)c2Oc2ccc(F)cc2)CC1
2. Cc1ccc(Oc2ncccc2C(=O)Nc2cccc3cccnc23)c(C)c1
3. OC(c1cc(C(F)(F)F)nc2c(C(F)(F)F)cccc12)C1CCCCN1 (centres unmarked) [Mefloquine, reference compound]
4. O=C(Nc1ccsc1C(=O)NC1CCCCC1)c1ccc(F)cc1
5. COc1ccc(C2c3ccc4ccccc4c3Oc3ncn(CCCN(C)C)c(=N)c32)cc1 (centres unmarked)
6. CN(C)Cc1ccc(-c2cc3c(-c4ccc(CN(C)C)cc4)ccnc3[nH]2)cc1.O=C(O)C(F)(F)F

OUTPUT:
1. -3.3751
2. -2.3902
3. -0.0476
4. -0.7610
5. -0.3826
6. 0.0520
